# Measured target: Human CD33 ECD-HSA (human)
# Sequence (chain, as listed by the source): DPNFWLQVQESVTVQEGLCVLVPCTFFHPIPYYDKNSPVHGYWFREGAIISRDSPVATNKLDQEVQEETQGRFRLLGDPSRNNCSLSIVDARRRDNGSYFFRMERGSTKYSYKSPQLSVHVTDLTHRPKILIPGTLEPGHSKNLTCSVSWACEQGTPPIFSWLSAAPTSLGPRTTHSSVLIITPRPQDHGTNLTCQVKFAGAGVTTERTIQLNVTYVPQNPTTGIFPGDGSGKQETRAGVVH
# Measurement protocol: ProteOn SPR, mAb captured by anti-human Fc, 1:1 Langmuir fit
Recorded kon for the following binders
Observable: kon (M⁻¹ s⁻¹)

Binder: C33B63 (antibody, IgG1, V domains shown, huIgG1 F405L; also called C33F68; C33H51/C33L34) VH: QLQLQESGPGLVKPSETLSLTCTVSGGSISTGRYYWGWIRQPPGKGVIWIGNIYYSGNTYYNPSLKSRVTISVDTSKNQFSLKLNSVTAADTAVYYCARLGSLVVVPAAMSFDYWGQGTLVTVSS VL: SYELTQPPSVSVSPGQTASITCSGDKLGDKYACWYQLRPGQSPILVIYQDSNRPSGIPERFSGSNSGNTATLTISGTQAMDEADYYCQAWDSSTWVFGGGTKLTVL
Observable: kon
Experimental result: 533000

Binder: C33B79 (antibody, IgG1, V domains shown, huIgG1 F405L; also called C33F84; C33H74/C33L38) VH: QVQLVESGGGVVQPGRSLRLSCAASRFTFSSYGMHWVRQAPGKGLEWVAVISYDGSNKYYADSVKGRFTISRDNSKNTLYLQMNSLRAEDTAVHYCAKDFRSFDWLPPDSASYHGMDVWGQGTTVTVSS VL: SYELTQPPSVSVPPGQTASITCSGDKLGDKYACWYQQKPGQSPVLVIYQDNKRPSGIPERFSGSNSGNTATLTISGTQAMDEADYYCQAWGRNTVVFGGGTKLTVL
Observable: kon
Experimental result: 515000

Binder: C33B124 (antibody, IgG1, V domains shown, huIgG1 F405L; also called C33F129; C33H73/C33L32) VH: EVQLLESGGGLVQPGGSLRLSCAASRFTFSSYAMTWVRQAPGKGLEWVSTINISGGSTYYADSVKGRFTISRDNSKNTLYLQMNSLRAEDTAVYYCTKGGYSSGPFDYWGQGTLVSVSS VL: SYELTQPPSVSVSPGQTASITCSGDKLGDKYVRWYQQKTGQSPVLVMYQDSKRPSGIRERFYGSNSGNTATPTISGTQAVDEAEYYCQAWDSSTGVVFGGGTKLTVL
Observable: kon
Experimental result: 357000

Binder: C33B80 (antibody, IgG1, V domains shown, huIgG1 F405L; also called C33F85; C33H76/C33L39) VH: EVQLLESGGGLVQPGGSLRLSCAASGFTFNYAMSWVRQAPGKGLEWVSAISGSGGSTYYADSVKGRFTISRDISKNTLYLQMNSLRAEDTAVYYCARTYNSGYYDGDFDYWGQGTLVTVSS VL: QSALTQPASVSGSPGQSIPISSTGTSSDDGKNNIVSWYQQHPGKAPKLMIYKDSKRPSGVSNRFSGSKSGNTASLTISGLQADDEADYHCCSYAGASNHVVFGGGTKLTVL
Observable: kon
Experimental result: 323000
